Tested on: NCI-H460
Assay: Cytotoxicity against human NCI-H460 cells assessed as cell death in serum free medium at 10 nM after 12 hrs by Hoechst 33342/propidium iodide staining based fluorescence microscopy
Assay type: functional
metric: Activity (%)
Express the result in % but write the number alone.

Check out these entries, answers already filled in.
CC(C)C[C@@H]1O[C@@H](O[C@H]2CC[C@@]3(C)[C@H](CC[C@@H]4[C@@H]3CC[C@]3(C)[C@@H](C5=CC(=O)OC5)CC[C@]43O)C2)[C@H](O)[C@H](O)[C@H]1O :: 12.15
CC[C@@H]1O[C@@H](O[C@H]2CC[C@@]3(C)[C@H](CC[C@@H]4[C@@H]3CC[C@]3(C)[C@@H](C5=CC(=O)OC5)CC[C@]43O)C2)CC[C@H]1O :: 13.46
CC(C)C[C@@H]1O[C@@H](O[C@H]2CC[C@@]3(C)[C@H](CC[C@@H]4[C@@H]3CC[C@]3(C)[C@@H](C5=CC(=O)OC5)CC[C@]43O)C2)CC[C@H]1O :: 10.03
C[C@@H]1O[C@@H](O[C@H]2CC[C@@]3(C)[C@H](CC[C@@H]4[C@@H]3CC[C@]3(C)[C@@H](C5=CC(=O)OC5)CC[C@]43O)C2)[C@H](O)[C@H](O)[C@H]1O :: 16.47
CCC[C@@H]1O[C@@H](O[C@H]2CC[C@@]3(C)[C@H](CC[C@@H]4[C@@H]3CC[C@]3(C)[C@@H](C5=CC(=O)OC5)CC[C@]43O)C2)[C@H](O)[C@H](O)[C@H]1O :: 15.86

Fill in: Activity of "CC(C)[C@@H]1O[C@@H](O[C@H]2CC[C@@]3(C)[C@H](CC[C@@H]4[C@@H]3CC[C@]3(C)[C@@H](C5=CC(=O)OC5)CC[C@]43O)C2)[C@H](O)[C@H](O)[C@H]1O" is ___ 12.81

###

Tested on: NCI-H460
Assay: Cytotoxicity against human NCI-H460 cells assessed as cell viability at 500 nM after 48 hrs by MTT assay
Format: functional
Settings: NCI-H460, 48 h, read-out: Activity
Measured viability at 0.5 µM, listed per entry for reference.
Express the result in % but write the number alone.

Check out these entries, answers already filled in.
CC(C)[C@@H]1O[C@@H](O[C@H]2CC[C@@]3(C)[C@H](CC[C@@H]4[C@@H]3CC[C@]3(C)[C@@H](C5=CC(=O)OC5)CC[C@]43O)C2)[C@H](O)[C@H](O)[C@H]1O :: 6.11
CC(C)C[C@@H]1O[C@@H](O[C@H]2CC[C@@]3(C)[C@H](CC[C@@H]4[C@@H]3CC[C@]3(C)[C@@H](C5=CC(=O)OC5)CC[C@]43O)C2)CC[C@H]1O :: 4.88
CC[C@@H]1O[C@@H](O[C@H]2CC[C@@]3(C)[C@H](CC[C@@H]4[C@@H]3CC[C@]3(C)[C@@H](C5=CC(=O)OC5)CC[C@]43O)C2)[C@H](O)[C@H](O)[C@H]1O :: 6.13

Field: next molecule
Fill in: viability at 0.5 µM of "CCC[C@@H]1O[C@@H](O[C@H]2CC[C@@]3(C)[C@H](CC[C@@H]4[C@@H]3CC[C@]3(C)[C@@H](C5=CC(=O)OC5)CC[C@]43O)C2)[C@H](O)[C@H](O)[C@H]1O" is ___ 5.87

// data source = ChEMBL document CHEMBL1817593
